Hey, just so you know, these numbers are from PubChem BioAssay (NCI).

Tested on: SK-MEL-5 melanoma
Assay: NCI-60 one-dose screen, 48 h
Conditions: 10 µM unless noted
This is part of a sample that, as a whole, favours compounds with a hit. Of some 83,000 tested, about 20% had one in any assay. Calls of active or inactive are those of the source. How the source made its calls: active means growth percent below 10; inactive means the rest.
Returns: one label drawn from active, inactive

Task: For COc1ccc(/C=C2\N=C(Nc3ccccc3)N(NC(=O)c3ccccn3)C2=O)cc1 , what call appears in the results of this test?
Result: inactive

Task: Test call, this compound: CCn1cc(-c2[nH]c(=S)ncc2-c2ccc(Cl)cc2)c(-c2ccc(Br)cc2)n1
Result: inactive

Task: Per the assay record, what outcome was assigned to C=C(C)[C@@H]1CC[C@]2(COC(=O)c3ccccc3C(=O)O)CC[C@]3(C)[C@H](CC[C@@H]4[C@@]5(C)CC[C@H](OC(=O)c6ccccc6C(=O)O)C(C)(C)[C@@H]5CC[C@]43C)[C@@H]12 ?
Result: inactive

Task: Status in this test for O=C(COc1cccc(/C=C2\Oc3ccccc3C2=O)c1)c1ccc([N+](=O)[O-])cc1 ?
Result: inactive

Task: # fetch the recorded call for Cc1cc(-c2ccc(N=Nc3c(S(=O)(=O)O)cc4cc(S(=O)(=O)O)cc(N)c4c3O)c(C)c2)ccc1N=Nc1cc(S(=O)(=O)O)c2ccccc2c1O here
Result: inactive

Task: Which outcome was assigned to C=CCCCCOc1ccccc1-c1cnc(OCCCCC=C)n1C in this test?
Result: inactive

Task: Please indicate how the test categorized CC(C)c1ccc(/C=N/N=C(N)N)cc1 .
Result: inactive

Task: Field: outcome | Entry: COc1cc(C(=O)/C=C/c2c(-c3ccc(F)cc3)nc3sccn23)cc(OC)c1OC
Result: active

Task: What did the test return for CCOC(=O)c1nn(C2CCCCO2)c2ccc(NC(=O)CN3CCCC3)cc12 (centres undefined) ?
Result: inactive

###

Test system: SK-MEL-28 melanoma
Experiment: NCI-60 one-dose screen, 48 h (100 = growth as untreated, 0 = no growth, -100 = all killed)
Conditions: 10 µM unless noted
About 83,000 compounds went through this panel and 20% of them were active in at least one assay; those are over-represented in the sample as a whole. Active and inactive are the calls of the source. How the source made its calls: active means growth percent below 10; inactive means the rest.
quantity.kind: growth

Task: Entry Cc1ccc2c(c1)C(C)Cc1c(Cl)ncnc1N2C (stereo unspecified) has what growth?
Result: 27.1% (inactive)

Task: Can you look up the measured growth of CCCCCN(CCCCC)CCCCCCCCN1CCCc2ccccc21 for me?
Result: 105% (inactive)

Task: growth for CC(C)OC(=O)Nc1cc(F)ccc1F ?
Result: 102% (inactive)

Task: Value lookup for growth; key = Cc1ccc(S(=O)(=O)Nc2ccccc2)cc1N
Result: 100% (inactive)

Task: I would be grateful if you could share the reported growth for Cc1cccc([N+](=O)[O-])c1I .
Result: 114% (inactive)

Task: Reported growth for Cc1ccc(S(=O)(=O)N/N=C2\CC3CCC2(C)C3(C)C)cc1 (stereo unspecified) : what is it?
Result: 102% (inactive)

Task: Any idea what growth was measured for CC(C)(C)c1cc(C(=O)Nc2cc3ccccc3cc2C(=O)NCCN)cc(C(C)(C)C)c1 ?
Result: -80.9% (active)

Task: Find the recorded growth belonging to Cc1nc(Cl)c2c(n1)N(C)c1ccc(Cl)cc1C(C)C2 (stereo unspecified) and report it.
Result: 105% (inactive)

Task: What value of measured growth is listed for Cc1ccc(N)c(O)c1 ?
Result: 103% (inactive)

Task: May I ask what growth has been recorded for O=C(O)c1ccccc1C(F)(F)F ?
Result: 121% (inactive)

Task: Please look up its growth: c1cc2ccc1CNCCN1CCNCc3ccc(cc3)Oc3ccc(cc3)CNCCN(CCNCc3ccc(cc3)O2)CCNCc2ccc(cc2)Oc2ccc(cc2)CNCC1
Result: 14.7% (inactive)

Task: growth lookup needed for COc1cc(NCc2cn(-c3ccc(C(=O)O)cc3)nc2-c2ccc(C(=O)O)cc2)cc(OC)c1OC , thanks.
Result: 103% (inactive)

Task: Value lookup for growth; key = CC(C)(C)OC(=O)N1C=C/C(=C\Cn2cc(-c3ccccc3)nn2)CC1
Result: 72.7% (inactive)

Task: Sample COc1ccc(/C=C/C=C\C(=O)c2ccc(-n3ccnc3)cc2)cc1 — what was its growth?
Result: 104% (inactive)

Task: Give its growth value. Item: c1coc2occoc=2o1
Result: 112% (inactive)

Task: // returns reported growth for input Clc1ccc2nc(-c3ccc(-c4ccc(/C=N/NC5=NCCN5)cc4)s3)cn2c1
Result: 99.5% (inactive)

Task: Looking for the measured growth of O=C(N/N=C1\c2ccccc2-c2cccc(C(=O)O)c21)c1ccc(O)cc1 , can you help?
Result: 102% (inactive)

Task: Need growth, item CCn1cc(-c2cc(-c3ccc(Cl)cc3)nc(N)n2)c(-c2ccc(Br)cc2)n1
Result: 61.3% (inactive)

Task: I'd like to know its growth. The compound in question is O=C(O)c1cc([N+](=O)[O-])ccc1Br
Result: 97.8% (inactive)

Task: Can you look up the measured growth of C[C@@H](NC(=O)[C@@H](CC(=O)N1CCC(N2CCCCC2)CC1)N1C(=O)[C@@H](N2C(=O)OC[C@@H]2c2ccccc2)[C@H]1/C=C/c1cccc(Cl)c1)c1ccccc1 for me?
Result: -29.4% (active)

Task: Name the recorded growth for O=C(Nc1ccc(Cl)c(C(F)(F)F)c1)Nc1ccc(-c2cccnc2)cc1N1CCC(CO)CC1 .
Result: 32.3% (inactive)

Task: What value of growth has been recorded for this entry: CCCCCCCCN(CCCCCCCC)CC(O)c1ccc(Cl)c(C)c1Cl (stereo unspecified)
Result: 106% (inactive)

Task: Would you mind telling me what growth value was observed for Nc1cccc2c1C(=O)c1cccc(NC(=O)c3ccccc3)c1C2=O ?
Result: 44.6% (inactive)

Task: What value of measured growth is listed for COc1ccc(-c2nc3ccccn3c2/C=C/C(=O)c2cc(OC)c(OC)c(OC)c2)cc1OC ?
Result: 29.1% (inactive)

Task: Query: growth; subject: C[C@]12CCc3nc(Nc4ccccc4)sc3C1=CC[C@@H]1[C@@H]2CC[C@]2(C)/C(=N/NC(N)=S)CC[C@@H]12
Result: 63.6% (inactive)

Task: # lookup: growth of O=C(Nc1cc(F)cc2cccnc12)c1cnc(N2CCNCC2)cn1
Result: 97.4% (inactive)

Task: Param item = COC(=O)c1c(C)[nH]c(/C=C2\N=C(c3ccc[nH]3)C=C2OC)c1C ; retrieve measured growth.
Result: -27.8% (active)

Task: Any idea what its growth is? The compound is N#C/C(C(=O)c1ccccc1)=C1/C(=O)Nc2ccc(F)cc21
Result: 108% (inactive)

Task: Fill blank: measured growth of the compound O=C1COCCN1c1ccc(NCc2cn(Cc3cccc4ccccc34)c3ccccc23)cc1 is ____.
Result: 92.6% (inactive)

Task: Quick one: growth of O=c1[nH]c(CN2CCN(c3cccc(Cl)c3)CC2)nc2cc(Cl)ccc12 ?
Result: 102% (inactive)

Task: # query: growth of entry COc1ccc(-c2cc(-c3ccc(OC)c(OC)c3)nc(SCCCCCC(=O)NO)n2)cc1
Result: 35.5% (inactive)

Task: Recorded growth for O=C(N/N=C/c1c(Cl)cccc1Cl)c1cccc(Nc2ccnc(C(F)(F)F)c2)c1 , please?
Result: 99.3% (inactive)

Task: So what does the record say about growth for COC(=O)C(=Cc1ccccc1[N+](=O)[O-])C(=O)OC ?
Result: 36.4% (inactive)

Task: Look at this compound and give its reported growth. CCOC(CNC(=O)c1cccc([N+](=O)[O-])c1)OCC
Result: 106% (inactive)

Task: # lookup: growth of CCn1cc(-c2[nH]c(=S)ncc2-c2ccc(Cl)cc2)c(-c2ccc(Br)cc2)n1
Result: 73.7% (inactive)

Task: Returns the measured growth for the input compound. Input: CC(=O)CC(=O)SC1=NCCS1
Result: 115% (inactive)

Task: Data request, read-out growth, for COC(=O)[C@@H](NC(=O)NC(=O)NC(=O)CI)C(C)C
Result: 91.7% (inactive)

Task: Would you mind telling me what growth value was observed for O=C(NCCCCCCCNC(=O)OCc1ccc2c(Cl)cc(Cl)c(O)c2n1)OCc1ccc2c(Cl)cc(Cl)c(O)c2n1 ?
Result: -83.1% (active)

Task: Bench note: what growth did Cc1cnc([C@]23CC[C@@H](C)[C@H](C)[C@H]2C2=CC[C@@H]4[C@@]5(C)Cc6c([nH]c7ccccc67)C(C)(C)[C@@H]5CC[C@@]4(C)[C@]2(C)CC3)o1 show?
Result: 20.3% [100 µM] (inactive)

Task: I have this compound here, COc1ccc2nc3cc(Cl)ccc3c(Nc3ccc(O)c(CN4CCCC4)c3)c2c1 , and I need its recorded growth.
Result: 82.9% (inactive)

Task: Requested read-out: growth. Entry: CC(C)(C)c1cc(C(=O)Nc2ccccc2C(=O)NCCN)cc(C(C)(C)C)c1
Result: -84% (active)
